All figures here come from ChEMBL document CHEMBL1144696.

System: Plasmodium falciparum
protocol.summary: Selectivity for chloroquine-resistant Plasmodium falciparum Dd2 over chloroquine-sensitive Plasmodium falciparum HB3 as IC50 ratio by SYBR green assay
Format: functional
Reported Ratio IC50 values follow for various molecules
Answer field: number only, no words.

Example molecules with recorded Ratio IC50:
CCN(CC)CCCNCCCCNc1ccnc2cc(Cl)ccc12: 2.34
CCN(CC)CCCN(CC)CCCCCCNc1ccnc2cc(Cl)ccc12: 4.36
CCN(CC)C1CCCC(Nc2ccnc3cc(Cl)ccc23)C1 (stereo unspecified): 3.04
CCN(CC)CCCNCCCCCNc1ccnc2cc(Cl)ccc12: 2.25
CCN(CC)CCCN(CC)CCCCNc1ccnc2cc(Cl)ccc12: 3.52

Measured Ratio IC50 of CCN(CC)C1CCC(Nc2ccnc3cc(Cl)ccc23)CC1 (stereo unspecified) : 2.03
